Tested on: HSV1
Protocol Details: plaque reduction assay, HSV1 clinical isolate in Vero cells
Format: cell-based, herpes simplex 1
Value Type: activity against HSV1 (in words)

Query Smiles	Measured Result
Nc1c(S(=O)(=O)c2cccs2)c2nc3ccccc3nc2n1Cc1ccccc1	did not inhibit
COc1ccc(Cl)cc1C(=O)Nc1ccc(NC(=O)c2ccco2)cc1	did not inhibit

* * *

Test system: HSV2
Protocol Details: plaque reduction assay, HSV2 clinical isolate in Vero cells
Format: cell-based, herpes simplex 2
Value Type: activity against HSV2 (in words)

Query Smiles	Measured Result
Nc1c(S(=O)(=O)c2cccs2)c2nc3ccccc3nc2n1Cc1ccccc1	did not inhibit
COc1ccc(Cl)cc1C(=O)Nc1ccc(NC(=O)c2ccco2)cc1	did not inhibit
